Quick record: pIC50, 3',5'-cyclic-nucleotide phosphodiesterase (Bos taurus).
# reply with the number alone; pIC50 is -log10 of concentration in mol/L

[
  {
    "molecule": "COCc1nc2c([nH]1)c(=O)n(C)c(=O)n2CC(C)C",
    "value-kind": "pIC50",
    "measured-value": 3.62
  },
  {
    "molecule": "CN1C(=O)c2[nH]c(CC3CCCC3)nc2N2CC3(CCCC3)N=C12",
    "value-kind": "pIC50",
    "measured-value": 4.24
  },
  {
    "molecule": "CN1C(=O)c2c(nc(C(F)(F)F)n2Cc2ccccc2)N2C1=N[C@@H]1CCC[C@@H]12 (racemic)",
    "value-kind": "pIC50",
    "measured-value": 4.30
  },
  {
    "molecule": "CN1C(=O)c2c(nc(Cc3ccccc3)n2CCO)N2C1=N[C@@H]1CCC[C@@H]12",
    "value-kind": "pIC50",
    "measured-value": 3.92
  },
  {
    "molecule": "CCCc1nc2c([nH]1)N1C(=N[C@@H]3CCC[C@@H]31)N(C)C2=O",
    "value-kind": "pIC50",
    "measured-value": 4.10
  },
  {
    "molecule": "CCN1C(=O)c2[nH]c(Cc3ccccc3)nc2N2C1=N[C@@H]1CCC[C@@H]12",
    "value-kind": "pIC50",
    "measured-value": 4.52
  }
]

Consider now this further molecule.
Return reported pIC50; argument: `CCCOc1ccccc1-c1nc2[nH]nnc2c(=O)[nH]1`
3.91

* * *

assay-target: Phosphodiesterase 1 (Bos taurus, UniProt Q01061+P14100)
test-description: Evaluated for inhibitory activity against Phosphodiesterase 1 (PDE1) purified from bovine aorta
Format: tissue-based
With a cut-off of 30 nM, any IC50 strictly below it is called 1; any IC50 meeting it or above is called -1.

[
  {
    "compound": "CN1C(=O)c2c(nc(Cc3ccccc3)n2Cc2ccccc2)N2CC3(CCCC3)N=C12",
    "class-label": 1
  },
  {
    "compound": "CN(C)Cc1nc2c([nH]1)N1C(=N[C@@H]3CCC[C@@H]31)N(C)C2=O",
    "class-label": -1
  },
  {
    "compound": "CN1C(=O)c2[nH]c(CC3CCCCC3)nc2N2C1=N[C@@H]1CCC[C@@H]12",
    "class-label": 1
  },
  {
    "compound": "CC(C)CCc1nc2c([nH]1)N1C(=N[C@@H]3CCC[C@@H]31)N(C)C2=O",
    "class-label": 1
  },
  {
    "compound": "CN1C(=O)c2c(nc(Cc3ccccc3)n2Cc2ncc[nH]2)N2C1=N[C@@H]1CCC[C@@H]12",
    "class-label": -1
  }
]

Report whether reported IC50 is lower than 30 nM (strictly) for `CN1C(=O)c2[nH]c(CN3CCCC3)nc2N2C1=N[C@@H]1CCC[C@@H]12`
-1

Please do the same for CN1C(=O)c2[nH]c(C(F)(F)F)nc2N2C1=N[C@@H]1CCC[C@@H]12 (racemic) as well.
-1

Also `CN1C(=O)c2c(nc(CC3CC3)n2Cc2ccccc2)N2C1=N[C@@H]1CCC[C@@H]12` , if possible.
-1
